Values were extracted from patent US4075340A.

Test: acute toxicity, LD50 /24 hrs/kg body weight, intravenous route, method according to Miller and Tainter
Settings: in vivo
Counter-ions that a name gives are not always drawn.
The threshold is 90 mg/kg. Values of LD50 at 24 h beneath it are tagged rule met; values meeting or exceeding it are tagged rule not met.

{"molecule": "Clc1ccc(CN2CCc3ccsc3C2)cc1 [Derivative No. 21, hydrochloride]", "label-class": "rule met"}
{"molecule": "CC1c2sccc2CCN1CCc1ccccc1 (centres unmarked)", "label-class": "rule met"}
{"molecule": "Cl.O=[N+]([O-])c1ccccc1CN1CCc2ccsc2C1", "label-class": "rule not met"}
{"molecule": "Cc1ccc(CN2CCc3ccsc3C2)cc1 [Derivative No. 24, hydrochloride]", "label-class": "rule met"}

---

Assay: acute toxicity, LD50 /24 hrs/kg body weight, intravenous route, method according to Miller and Tainter
Settings: in vivo
Structures can show the parent of a compound that is named as a salt.
The threshold is 80 mg/kg. Values of LD50 at 24 h beneath it are tagged MET; values meeting or exceeding it are tagged NOT MET.

{"molecule": "Cl.OC(CN1CCc2ccsc2C1)c1ccccc1 (stereo not drawn) [Derivative No. 23]", "label-class": "MET"}
{"molecule": "CC(O)CN1CCc2ccsc2C1.Cl (stereo not drawn) [Derivative No. 9]", "label-class": "NOT MET"}
{"molecule": "COc1ccc(OCC(O)CN2CCc3ccsc3C2)cc1 (stereo not drawn) [Derivative No. 35, hydrochloride]", "label-class": "MET"}
{"molecule": "OC(CN1CCc2ccsc2C1)c1ccc(F)cc1 (stereo not drawn) [Derivative No. 29]", "label-class": "MET"}
{"molecule": "COc1ccc(C(=O)C[n+]2ccc3ccsc3c2C)cc1.[Br-] [Derivative No. 44]", "label-class": "MET"}
{"molecule": "COc1ccc(OC)c(C(O)CN2CCc3ccsc3C2C)c1 (stereo not drawn) [Derivative No. 34]", "label-class": "NOT MET"}
{"molecule": "COc1ccc(CN2CCc3ccsc3C2)cc1 [Derivative No. 18, hydrochloride]", "label-class": "MET"}
{"molecule": "CC(=O)CCN1CCc2ccsc2C1.O=C(O)/C=C\\C(=O)O [Derivative No. 36]", "label-class": "MET"}

---

Each record here notes measured LD50 at 24 h.
Test: acute toxicity, LD50 /24 hrs/kg body weight, intravenous route, method according to Miller and Tainter
Conditions: in vivo
Counter-ions that a name gives are not always drawn.
property-label: LD50 at 24 h (mg/kg)

{"molecule": "OC(CN1CCc2ccsc2C1)c1ccc(Cl)cc1 (stereo not shown)", "property-label": "LD50 at 24 h", "measured-result": 45}
{"molecule": "Fc1ccccc1CN1CCc2ccsc2C1", "property-label": "LD50 at 24 h", "measured-result": 87}
{"molecule": "COc1cc(CN2CCc3ccsc3C2)cc(OC)c1OC.O=C(O)/C=C\\C(=O)O", "property-label": "LD50 at 24 h", "measured-result": 80}
{"molecule": "c1ccc(CCN2CCc3ccsc3C2)cc1 [Derivative No. 19, hydrochloride]", "property-label": "LD50 at 24 h", "measured-result": 48}
